tested on: HeLa cells; experiment: In vitro Fluc expression with variable peptoid:mRNA mass ratio, 2% DMG-PEG2000; format: cell-based; conditions: 24 h, 2% (w/w) DMG-PEG2000, peptoid:mRNA 2:1
Exercise: state measured Observed Luciferase Expression (RLU) for Given Formulation Mass Ratio 2:1 for each of the compounds provided.
One number for each entry, in RLU.

Some solved cases for reference:
Compound: CCCCCCCCCCCCN(CC(N)=O)C(=O)CN(CCCCCCCCCCCC)C(=O)CN(CCc1ccccc1)C(=O)CN(CCc1ccccc1)C(=O)CN(CCN)C(=O)CN(CCc1ccccc1)C(=O)CN(CCc1ccccc1)C(=O)CN(CCN)C(=O)CN(CCc1ccccc1)C(=O)CN(CCc1ccccc1)C(=O)CNCCN [Compound 3]
Measured: 4.42E+03

Compound: CCCCCCCCCCN(CC(N)=O)C(=O)CN(CCCCCCCCCC)C(=O)CN(CCc1ccccc1)C(=O)CN(CCc1ccccc1)C(=O)CN(CCN)C(=O)CN(CCc1ccccc1)C(=O)CN(CCc1ccccc1)C(=O)CNCCN [Compound 10]
Measured: 5.57E+03

Compound: CCCCCCCCCCN(CC(N)=O)C(=O)CN(CCCCCCCCCC)C(=O)CN(CCCCCCCCCC)C(=O)CN(CCCCCCCCCC)C(=O)CN(CCc1ccccc1)C(=O)CN(CCc1ccccc1)C(=O)CN(CCNC)C(=O)CN(CCc1ccccc1)C(=O)CN(CCc1ccccc1)C(=O)CN(CCNC)C(=O)CN(CCc1ccccc1)C(=O)CN(CCc1ccccc1)C(=O)CNCCNC [Compound 25]
Measured: 3.86E+02

Incoming: Quickly give me recorded Observed Luciferase Expression (RLU) for Given Formulation Mass Ratio 2:1 for CCCCCCCCCCN(CC(N)=O)C(=O)CN(CCCCCCCCCC)C(=O)CN(CCc1ccccc1)C(=O)CN(CCc1ccccc1)C(=O)CNCCN [Compound 9]
Outgoing: 2.28E+02

src = patent US20220323594A1
